tested on: M19-MEL melanoma; experiment: NCI tumour cell line growth inhibition, 48 h
readout.label: TGI

* O=C(CC1(O)C(=O)Nc2ccccc21)c1ccc(Cl)c(Cl)c1 (stereo not drawn) | > 100 µM
* COc1ccc2nc3cc(Cl)ccc3c(Nc3ccccc3-c3ccccc3Nc3c4ccc(Cl)cc4nc4ccc(OC)cc34)c2c1 | > 93.3 µM

Please find the next compound below.
## Task TGI for CC1(Cl)C(=O)NC(=O)N([C@H]2C[C@H](O)[C@@H](CO)O2)C1N=[N+]=[N-] (stereo partly drawn) ?
## Result > 100 µM

###

Listed compounds paired with reported TGI
tested on: SNB-19 CNS; assay: NCI tumour cell line growth inhibition, 48 h

Solved cases (5 shown):
- CCOP(=O)(OCC)C(c1ccc(F)cc1)N(C(=O)NC(F)(F)F)c1ccc(F)cc1 (stereo unspecified): > 100 µM
- CN(C)N1C(=O)C(=O)N(c2cccc3ccccc23)C1=O: > 10 µM
- O=C(NC(=S)Nc1ccc(Br)cc1)c1ccc2c(c1)Sc1ccccc1O2: > 100 µM
- O=C1C=C(NCCc2ccc(O)c([N+](=O)[O-])c2)C(=O)c2[nH]cnc21: > 100 µM
- O=C1/C(=C/c2ccc(F)cc2)COc2ccc(O)c(O)c21: 15.8 µM

## Task Lab note: need TGI for COc1ccc2c(c1OC)C(=O)C2 on SNB-19 CNS, anyone have it?
## Result > 100 µM

## Task # value lookup — system SNB-19 CNS, readout TGI, item ClCCCN1CCN(CCCl)CC1
## Result > 1000 µM

## Task Request: TGI, test system SNB-19 CNS, entry CCCC(=O)OCC1OC(n2cc(F)c(=O)[nH]c2=O)CC1OC(=O)CCC (stereo unspecified)
## Result > 10 µM

## Task Find TGI (SNB-19 CNS) for the entry Cc1cn(S(=O)(=O)c2ccccc2)c2c(OCc3ccccc3)cc([N+](=O)[O-])cc12
## Result > 100 µM

## Task # value lookup — system SNB-19 CNS, readout TGI, item CC1=C(C)C(=O)OC(C(C)(O)C2(O)CC3OC34C3CC(O)C56OC5C=CC(=O)C6(C)C3CCC42C)C1 (stereo unspecified)
## Result 19.9 µM

## Task Query for SNB-19 CNS: what TGI does the record show for O=S(=O)(F)Cc1ccccc1 ?
## Result > 100 µM

###

tested on: MOLT-4 leukemia; test: NCI tumour cell line growth inhibition, 48 h; in the data active = GI50 below about 0.43 µM; inactive = the rest
Entry note: the call must match one of active, inactive

Please review the following examples before continuing.
• COc1ccc(Cn2cc3c(c2-c2ccccc2)CCc2cnoc2-3)cc1 = active
• COc1ccc(-n2cc(-c3cc(OC)c(OC)c(OC)c3)nc2SCc2cccc(C#N)c2)cc1OC = inactive
• COc1ccc(C2=C(c3ccc(OC)cc3)C(=O)OC2)cc1 = inactive

## Task What was the test verdict on COc1ccc(/C=C\c2cc(OC)c(OC)c(OC)c2)cc1NC(=O)/C=C/c1ccc(OC)c(OC)c1 ?
## Result inactive

## Task In this assay, the call recorded for CN1CCN(C2=C(Cl)C(=O)c3ccccc3C2=O)CC1 was what?
## Result inactive

###

tested on: ACHN renal; assay: NCI tumour cell line growth inhibition, 48 h
Entries and their TGI

Below, each entry is followed by its recorded TGI result.
- O=C(NC(=S)Nc1ccc(Br)cc1)c1ccc2c(c1)Sc1ccccc1O2: > 100 µM
- CC(=O)c1cc2c(Br)cccc2oc1=O: > 100 µM
- CCCC(=O)OCC1OC(n2cc(F)c(=O)[nH]c2=O)CC1OC(=O)CCC (centres undefined): > 10 µM
- COc1cc2ncnc(NS(=O)(=O)c3cc4ccccc4s3)c2cc1OC: > 100 µM
- O=C(CC(C(=O)c1ccsc1)c1cccs1)c1ccccc1 (centres undefined): > 100 µM

## Task May I ask what TGI has been recorded for CC(C)(C)OC(=O)N(CCCCN(CCCn1c2c(c3ccccc3c1=O)C(=O)c1ccccc1-2)C(=O)OC(C)(C)C)CCCn1c2c(c3ccccc3c1=O)C(=O)c1ccccc1-2 ?
## Result > 100 µM

## Task Reported TGI, compound S=C1SCC2CCCN12 (centres undefined) : ____
## Result > 100 µM

## Task Field request: TGI | item: O=C(c1ccc(Cl)cc1Cl)N1CCN(C(=O)c2ccc(Cl)cc2Cl)C1=S
## Result 45.7 µM

## Task Field request: TGI | item: Cc1[nH]n(-c2nc(-c3ccccc3)cc(=O)[nH]2)c(=O)c1CCO
## Result > 100 µM

## Task Return reported TGI; argument: CN1CCN(C2=C(Cl)C(=O)c3ccccc3C2=O)CC1
## Result 2.94 µM

## Task Would you mind telling me what TGI value was observed for Cc1nc2ccccc2c(=O)n1/N=C(\N=Nc1ccc(Cl)cc1)c1cccc(-c2ccco2)c1 ?
## Result > 100 µM

## Task Query: TGI; subject: COc1ccc2c(c1)/C(=C\c1c(Cl)nc3n1CCS3)C(=O)N2
## Result > 100 µM

## Task Looking for the measured TGI of Nc1c(C(=O)c2cccc(-c3cccnc3)c2)cnn1-c1ccc(F)cc1 , can you help?
## Result > 25 µM

## Task Requested read-out: TGI. Entry: C[C@H]1C[C@@H](n2c(Nc3ccc(OC(F)(F)F)cc3)nc3cc(CCC(=O)O)ccc32)CC(C)(C)C1
## Result 27.1 µM

## Task Fill blank: measured TGI of the compound CC(C)(C)C1=CC(=N/N=c2\scc(-c3ccccc3)n2Cc2ccccc2)C=C(C(C)(C)C)C1=O is ____.
## Result > 100 µM

## Task Request the reported TGI associated with O=C(COc1cc(=O)oc2ccccc12)c1ccccc1
## Result 36.4 µM

## Task May I ask what TGI has been recorded for O=C(O)CCC(O)=C1S(=O)(=O)OCCOS1(=O)=O ?
## Result > 100 µM

## Task Find the recorded TGI belonging to CN1C/C(=C\c2cccs2)C2=NN(c3ccccc3)C(c3cccs3)C2C1 (centres undefined) and report it.
## Result > 100 µM

## Task Bench note: what TGI did COCN1COCN(C)C1=O show?
## Result > 100 µM
